Numbers sourced from PubChem BioAssay (NCI).

The entries below are paired with their reported TGI.
system: SK-OV-3 ovarian; assay: NCI tumour cell line growth inhibition, 48 h
quantity: TGI

| molecule | endpoint.value |
| --- | --- |
| CC1=NN(c2cccc(Cl)c2)C2(SCC(=O)N2c2nc3ccccc3s2)/C1=C\c1ccc(Cl)cc1 (configuration not stated) | 47.3 µM |
| CC1Cc2c(Br)nc(N)nc2NC1=O (configuration not stated) | > 100 µM |
| CC(=O)N1N=C2/C(=C/c3ccccc3)CC(C)CC2C1c1ccccc1 (configuration not stated) | 40.3 µM |
| COc1ccc(CN2C[C@H]3[C@@H](CC(=O)O[C@H]3C)CC2=O)cc1 | > 100 µM |
| CC(C)CNC(=O)CCc1cccc2c1oc1c(CCN)cccc12 | 31.6 µM |
| CCOC(=O)c1cc2c(ccc3cc(C(=O)OCC)[nH]c32)[nH]1 | > 100 µM |
| COc1ccccc1C1SCC(=O)N1c1ccc(-n2c(-c3ccccc3)nc3ccccc3c2=O)cc1 (configuration not stated) | > 100 µM |
| COc1cc2c(cc1OCCCOc1cc(-c3ccc(F)cc3)nc(C)n1)N=C[C@@H]1CCCN1C2=O | 62.7 µM |
| CN(C)CCNC(=O)c1cc2ccccc2c2nc3ccccc3nc12 | > 31.6 µM |
| O=C(O)CN1CCNCCN(CP(=O)(O)O)CC1 | > 100 µM |
| CC(C)(C)NCc1cc(Nc2ccnc3cc(Cl)ccc23)cc(-c2ccc(Cl)cc2)c1O | 16.9 µM |
| COc1cc(C2c3cc4c(cc3OC(NC3CCCCC3)C2C)OCO4)cc(OC)c1OC (configuration not stated) | 15.3 µM |
| COc1cc(N(CCC#N)CCC#N)ccc1/C=C1\SC(=S)NC1=O | > 100 µM |
| OCC(CN1CCCCC1)(CN1CCCCC1)CN1CCCCC1 | > 100 µM |
| C[C@H]1O[C@@H](c2c(O)ccc3ccccc23)C[C@@H](N(C)C)C1O (some centres not stated) | > 100 µM |
| CC1CC2(C)ON=C(c3ccccc3)N2c2ccccc2S1 (configuration not stated) | 91.9 µM |
| COc1ccc(C(=O)C(c2ccc(OC)cc2)C2(O)C(=O)Nc3ccccc32)cc1 (configuration not stated) | > 100 µM |
| COc1cc(-c2nc(Nc3nc4ccccc4[nH]3)nc(N)c2C#N)cc(OC)c1OC | 56.8 µM |
| COC(=O)/C=C/c1ccc2c(c1)CCC2 | > 100 µM |
| CC1=NN(c2nc(N)nc(CCl)n2)CC1 | > 100 µM |
| C/C(=C\C(C)COCc1ccccc1)[C@H](COCc1ccccc1)OCc1ccccc1 (some centres not stated) | > 100 µM |
| Cc1nc(C)c(C(=O)NNC(=O)Cc2ccccc2)cc1C(=O)NNC(=O)Cc1ccccc1 | > 100 µM |

* * *

test system: SNB-75 CNS; experiment: NCI tumour cell line growth inhibition, 48 h
quantity: TGI (µM)

| compound | quantity | measurement.qualifier | endpoint.value |
| --- | --- | --- | --- |
| C=C1C(=O)O[C@@H]2C[C@@]3(C)CCC[C@H](C)C3=C[C@H]12 | TGI | = | 13.4 |
| COc1ccc(-c2[nH]c3ccccc3c2C=C(C#N)C#N)cc1 | TGI | = | 20.5 |
| O=S1c2ccccc2N=C(c2ccc3ccccc3c2)CC1C1=CC=CCC1 (centres undefined) | TGI | = | 50.6 |
| O=C1CCCCC/C1=C\c1ccc(F)cc1 | TGI | > | 100 |
| C1=Cc2ccccc2Nc2ccccc21 | TGI | > | 100 |
| Cc1cc(NS(=O)(=O)c2ccc(N=Nc3cc(N=Nc4ccc(S(=O)(=O)Nc5cc(C)nc(C)n5)cc4)c4c(NC(=O)C(Cl)Cl)cccc4c3OC(=O)C(Cl)Cl)cc2)nc(C)n1 (tested in a mixture with another compound) | TGI | = | 76.9 |
| Cc1cc(O)cc2oc(=O)c3c(O)cc(O)cc3c12 | TGI | = | 32.2 |
| C=CC(Cl)(CBr)CCC(Br)=C(C)C (centres undefined) | TGI | = | 91.4 |
| CN(C)c1ccc(N2Cc3ccccc3OC3=C2C(=O)c2c(O)ccc(O)c2C3=O)cn1 | TGI | = | 6.93 |
| CCCCCCCCCCCCCC(=O)O[C@H]1CC[C@H](NC(=O)[C@H](OC)[C@H](O)[C@@H](O)[C@H](O)/C=C/C(C)C)C(=O)NC1 | TGI | = | 38.8 |
| CC(C)(C)OC(=O)N(O)[C@@H]1C=C[C@H](n2cnc3c(N)ncnc32)C1 | TGI | > | 100 |
| O=C(O)C(CP(=O)(O)O)=C(Cl)Cl | TGI | > | 100 |
| CCSc1nc(N)c2c(-c3ccc(OC)c(OC)c3)c3c(nc2n1)CCCC3 | TGI | > | 100 |
| Cn1nccc1Nc1nccc(-c2cc3c(s2)C(C)(C)N(CCN2CCOCC2)C3=O)n1 | TGI | > | 100 |
| CCOc1c(Br)cc(C2C(C(=O)OC)=CN(C)C=C2C(=O)OC)cc1OC | TGI | > | 100 |
| Cc1nc2c(n1CCO)C(=O)c1ccccc1C2=O | TGI | > | 100 |
| COc1cc2c(cc1OCCCOc1cc(-c3ccc(F)cc3)nc(C)n1)N=C[C@@H]1CCCN1C2=O | TGI | = | 49.1 |
| COc1ccc2cc(C(C)C(O)c3cc(F)c(F)c(F)c3F)ccc2c1 (centres undefined) | TGI | = | 43.6 |
| CC(=N/NC(=S)N1CCCCC1)/C(=N\NC(=S)N1CCCCC1)c1ccccc1 | TGI | = | 3.59 |
| CC(C)(C)NCc1cc(Nc2ccnc3cc(Cl)ccc23)cc(-c2ccc(Cl)cc2)c1O | TGI | = | 5.13 |
| COc1cc(C2c3cc4c(cc3OC(NC3CCCCC3)C2C)OCO4)cc(OC)c1OC (centres undefined) | TGI | = | 0.623 |
| COc1cc2nc(-c3cnc(N(C)C)nc3)nc(NC3CCN(Cc4ccccc4)CC3)c2cc1OC | TGI | = | 2.86 |
| O=C1/C(=C/c2cccnc2)C(n2cccc2)c2c(Br)sc(Br)c21 (centres undefined) | TGI | = | 3.67 |
| CCOC(=O)/C(=C\c1ccc(O)c(OC)c1)C(=O)c1ccccc1 | TGI | = | 89.5 |
| Cc1ccc(NC(=O)C(=O)C2C(=O)N(c3ccccc3)N=C2N)cc1C (centres undefined) | TGI | > | 100 |
| CN(C)c1ccc(/C=C2/SC(=S)NC2=O)cc1 | TGI | > | 100 |
| CCCN(CCC)C(=O)C1=Cc2ccc(-c3ccc(C(=O)N4CCCC4)cc3)cc2N=C(N)C1 | TGI | = | 30.6 |
| CCOc1cccc(/C=N/NC(=O)c2ccc(Nc3ccnc(C(F)(F)F)c3)cc2)c1O | TGI | > | 67.5 |
| Cc1ccc([N+](=O)[O-])c2c(NCCNC(=O)Cn3ccnc3[N+](=O)[O-])ccnc12 | TGI | > | 100 |
| CCC(=O)Nc1ccc(N=Cc2cccc(Oc3ccccc3)c2)cc1 | TGI | > | 100 |
| CC(C)=CCC[C@@H](C)C1=C(O)C(Nc2ccccc2Br)=C(C)C(=O)C1=O | TGI | = | 66.2 |
| CC[C@H](C)[C@H]1NC(=O)[C@@H](N[C@](C)(O)[C@@H](N)CC(C)C)[C@@H](C)OC(=O)[C@H](Cc2ccc(OC)cc2)N(C)C(=O)[C@@H]2CCCN2C(=O)[C@H](CC(C)C)NC(=O)[C@@H](C)C(=O)[C@H](C(C)C)OC(=O)C[C@@H]1O | TGI | = | 0.436 |
| O=c1[nH]c(Nc2ccc(F)c(Cl)c2)nc2nc[nH]c12 | TGI | = | 97.8 |
| CC1Cc2c(Br)nc(N)nc2NC1=O (centres undefined) | TGI | > | 100 |
| COC(=O)c1ccc(OCc2ccc3nc(OC)c(OC)nc3c2)cc1 | TGI | > | 100 |
| COc1cc(C2=NN(C)C(c3ccc([N+](=O)[O-])o3)C2)cc(OC)c1OC (centres undefined) | TGI | > | 100 |
| COc1ccc(C(=O)C(c2ccc(OC)cc2)C2(O)C(=O)Nc3ccccc32)cc1 (centres undefined) | TGI | > | 100 |
| Cc1ccccc1C1CC(=O)CC(c2ccccc2C)C12C(=O)NC(=O)NC2=O (centres undefined) | TGI | > | 100 |
| N#C/C(=C\c1ccc(-c2ccc(Cl)cc2)o1)C(=O)Nc1ncc(Cc2ccc(Cl)cc2)s1 | TGI | = | 3.89 |

* * *

test system: UACC-62 melanoma; assay: NCI tumour cell line growth inhibition, 48 h
The entries below are paired with their reported TGI.
quantity: TGI (µM)

| compound | quantity | unit.label | measurement.qualifier | endpoint.value |
| --- | --- | --- | --- | --- |
| Cc1c(Cl)ccc2c1NC(=O)C2(O)C(C(=O)c1ccccc1)c1ccccc1 (stereo not given) | TGI | µM | = | 46 |
| COc1cccc2c1CCc1ccccc1CC2=O | TGI | µM | > | 100 |
| CN(C)c1ccc(-c2cc(=O)c3cc4c(cc3[nH]2)OCO4)cc1 | TGI | µM | > | 100 |
| Cn1cc(-c2nc(-c3c[nH]c4ncccc34)cs2)c2cc(F)ccc21 | TGI | µM | = | 17.2 |
| COc1ccc(C(=O)OCC2OC(n3cnc4c(=S)nc[nH]c43)C(OC(=O)c3ccc(OC)cc3)C2OC(=O)c2ccc(OC)cc2)cc1 (stereo not given) | TGI | µM | > | 100 |
